This listing pairs molecules with measured MIC.
- Tested on: S. aureus
- protocol: MIC, broth micro-dilution (CLSI)
- Type: cell-based, Staphylococcus aureus
- details: Staphylococcus aureus, IRISH 2 – HA-EMRSA (ST8); absence of FBS; read-out: MIC

[
  {
    "smiles_repr": "Cc1ccc(/C=N/Nc2cc(N/N=C/c3ccc(C)cc3)nc(N)n2)cc1",
    "MIC [µg/mL]": 1
  },
  {
    "smiles_repr": "CCCCCCCCCC(=O)N[C@@H](Cc1c[nH]c2ccccc12)C(=O)N[C@H](CC(N)=O)C(=O)N[C@@H](CC(=O)O)C(=O)N[C@@H]1C(=O)NCC(=O)N[C@@H](CCCN)C(=O)N[C@@H](CC(=O)O)C(=O)N[C@H](C)C(=O)N[C@@H](CC(=O)O)C(=O)NCC(=O)N[C@H](CO)C(=O)N[C@@H]([C@H](C)CC(=O)O)C(=O)N[C@@H](CC(=O)c2ccccc2N)C(=O)O[C@@H]1C",
    "MIC [µg/mL]": 0.5
  }
]
